Assay: Cytotoxicity to LLC-MK2 host cells (MTT)
Type: cell-based
Details: rhesus monkey, LLC-MK2 cells (kidney fibroblasts); screening at 50 μM, 120 h
I'd appreciate it if you could supply viability at 120 h, 50 µM values for the items below.
Please state the figure in %; there is no need to write the unit.

Could you share which viability at 120 h, 50 µM value was measured for `COc1cc(-c2noc(/C=C/c3ccco3)n2)cc(OC)c1OC` ?
73.5

viability at 120 h, 50 µM for `O=[N+]([O-])c1ccc(/C=C/c2nc(-c3ccccc3)no2)cc1` ?
78.2

Which measured viability at 120 h, 50 µM value corresponds to `Clc1ccc(/C=C/c2nc(-c3ccccc3)no2)cc1` ?
77.8

Could you share which viability at 120 h, 50 µM value was measured for `COc1cccc(/C=C/c2nc(-c3ccccc3)no2)c1` ?
86.6

Recorded viability at 120 h, 50 µM for `C(=C\c1nc(-c2ccccc2)no1)/c1ccc2c(c1)OCO2` , please?
75.9

Recorded viability at 120 h, 50 µM of `COc1cccc(/C=C/c2nc(-c3cc(OC)c(OC)c(OC)c3)no2)c1` , please.
87.1

Request the reported viability at 120 h, 50 µM associated with `COc1cc(-c2noc(/C=C/c3ccc4c(c3)OCO4)n2)cc(OC)c1OC`
55.9

Look up viability at 120 h, 50 µM: `C(=C\c1nc(-c2ccccc2)no1)/c1ccccc1`
87.2

So what does the record say about viability at 120 h, 50 µM for `COc1ccc(/C=C/c2nc(-c3ccccc3)no2)cc1` ?
77.4

Fill in: viability at 120 h, 50 µM of `COc1cc(/C=C/c2nc(-c3ccccc3)no2)cc(OC)c1OC` is ___
88.2

Fill in: viability at 120 h, 50 µM of `COc1cc(/C=C/c2nc(-c3cc(OC)c(OC)c(OC)c3)no2)cc(OC)c1OC` is ___
64.1

What value of viability at 120 h, 50 µM has been recorded for this entry: `C(=C\c1nc(-c2ccccc2)no1)/c1ccc2c(c1)OCCO2`
84.5

Find the recorded viability at 120 h, 50 µM belonging to `Fc1ccc(/C=C/c2nc(-c3ccccc3)no2)cc1` and report it.
90.7

So what does the record say about viability at 120 h, 50 µM for `C(=C\c1nc(-c2ccccc2)no1)/c1ccco1` ?
89.2

Give the measured viability at 120 h, 50 µM of `COc1cc(-c2noc(/C=C/c3ccccc3)n2)cc(OC)c1OC` .
88.5
